Source: BindingDB's records for doi:10.1016/j.bmc.2013.02.037

Experiment: Inhibition interleukin-5 in mouse Y16 cells after 48 hrs by WST-1 assay
measuredProperty: pIC50
Conceptually, pIC50 converts a concentration in mol/L into minus its log10.

O=c1c(CCC(O)c2ccc(F)cc2)coc2cccc(OCC3CCCCC3)c12 (centres undefined); 5.05
O=c1c(CCC(O)c2ccc(Cl)cc2)coc2cccc(OCC3CCCCC3)c12 (centres undefined); 5.05
O=C(CCc1coc2cccc(OCC3CCCCC3)c2c1=O)c1ccc(Cl)cc1; 4.85
O=c1c(CCC(O)c2ccc3ccccc3c2)coc2cccc(OCC3CCCCC3)c12 (centres undefined); 4.77

IN: Requested read-out: pIC50. Entry: N#Cc1ccc(C(O)CCc2coc3cccc(OCC4CCCCC4)c3c2=O)cc1 (centres undefined)
OUT: 4.82

IN: Input `N#Cc1ccc(C(=O)CCc2coc3cccc(OCC4CCCCC4)c3c2=O)cc1`
OUT: 4.77

IN: Input O=c1c(CCC(O)c2ccc(Cl)c(Cl)c2)coc2cccc(OCC3CCCCC3)c12 (centres undefined)
OUT: 5.10

IN: Input `O=C(CCc1coc2cccc(OCC3CCCCC3)c2c1=O)c1ccc(O)cc1`
OUT: 4.82

IN: Input `O=C(CCc1coc2cccc(OCC3CCCCC3)c2c1=O)c1ccc(F)cc1`
OUT: 4.70

IN: Input O=c1c(CCC(O)c2ccc(O)cc2)coc2cccc(OCC3CCCCC3)c12 (centres undefined)
OUT: 5.40

IN: Input `COc1ccc(C(=O)CCc2coc3cccc(OCC4CCCCC4)c3c2=O)cc1`
OUT: 4.80

----------
Experiment: Inhibition interleukin-5 in mouse Y16 cells after 48 hrs by WST-1 assay
pIC50: −log10 of the molar value.
measuredProperty: pIC50

Known pIC50 results, listed for orientation:
O=C(CCc1coc2cccc(OCC3CCCCC3)c2c1=O)c1ccc(C(F)(F)F)cc1; < 4.52
CC(C)(C)c1ccc(C(=O)CCc2coc3cccc(OCC4CCCCC4)c3c2=O)cc1; < 4.52
Cc1ccc(C(=O)CCc2coc3cccc(OCC4CCCCC4)c3c2=O)cc1; < 4.52
O=c1c(CCC(O)c2ccc(C(F)(F)F)cc2)coc2cccc(OCC3CCCCC3)c12 (stereo not drawn); < 4.52
COc1ccc(C(=O)CCC2COc3cccc(OCC4CCCCC4)c3C2=O)cc1 (stereo not drawn); < 4.52

IN: Requested read-out: pIC50. Entry: Cc1ccc(C(O)CCc2coc3cccc(OCC4CCCCC4)c3c2=O)cc1 (stereo not drawn)
OUT: < 4.52

IN: Input `O=C(CCc1coc2cccc(OCC3CCCCC3)c2c1=O)c1ccccc1`
OUT: < 4.52

IN: Input O=C(CCC1COc2cccc(OCC3CCCCC3)c2C1=O)c1ccc(Cl)c(Cl)c1 (stereo not drawn)
OUT: < 4.52

IN: Input CC(C)(C)c1ccc(C(O)CCc2coc3cccc(OCC4CCCCC4)c3c2=O)cc1 (stereo not drawn)
OUT: < 4.52

IN: Input O=c1c(CCC(O)c2ccccc2)coc2cccc(OCC3CCCCC3)c12 (stereo not drawn)
OUT: 4.92

IN: Input COc1ccc(C(O)CCc2coc3cccc(OCC4CCCCC4)c3c2=O)cc1 (stereo not drawn)
OUT: 5.19

IN: Input `O=C(CCc1coc2cccc(OCC3CCCCC3)c2c1=O)c1ccc(Cl)c(Cl)c1`
OUT: 4.66

IN: Input `O=C(CCc1coc2cccc(OCC3CCCCC3)c2c1=O)c1ccc2ccccc2c1`
OUT: < 4.52
